Target: LAT1 (Homo sapiens)
Sequence (Q01650 whole entry): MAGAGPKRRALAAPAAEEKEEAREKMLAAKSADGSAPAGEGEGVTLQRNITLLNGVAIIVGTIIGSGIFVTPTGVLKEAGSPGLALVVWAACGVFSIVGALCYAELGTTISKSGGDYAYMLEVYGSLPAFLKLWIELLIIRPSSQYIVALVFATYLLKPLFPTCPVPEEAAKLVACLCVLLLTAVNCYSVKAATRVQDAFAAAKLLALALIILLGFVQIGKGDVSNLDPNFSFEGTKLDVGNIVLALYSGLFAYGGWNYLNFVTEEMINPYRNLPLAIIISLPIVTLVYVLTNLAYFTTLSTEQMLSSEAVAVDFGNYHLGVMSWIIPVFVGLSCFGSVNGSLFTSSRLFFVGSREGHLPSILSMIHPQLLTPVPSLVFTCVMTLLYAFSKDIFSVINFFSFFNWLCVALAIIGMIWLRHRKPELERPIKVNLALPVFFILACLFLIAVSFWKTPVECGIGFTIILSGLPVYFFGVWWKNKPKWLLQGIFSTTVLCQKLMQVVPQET
Sequence (P08195 102-630 partner): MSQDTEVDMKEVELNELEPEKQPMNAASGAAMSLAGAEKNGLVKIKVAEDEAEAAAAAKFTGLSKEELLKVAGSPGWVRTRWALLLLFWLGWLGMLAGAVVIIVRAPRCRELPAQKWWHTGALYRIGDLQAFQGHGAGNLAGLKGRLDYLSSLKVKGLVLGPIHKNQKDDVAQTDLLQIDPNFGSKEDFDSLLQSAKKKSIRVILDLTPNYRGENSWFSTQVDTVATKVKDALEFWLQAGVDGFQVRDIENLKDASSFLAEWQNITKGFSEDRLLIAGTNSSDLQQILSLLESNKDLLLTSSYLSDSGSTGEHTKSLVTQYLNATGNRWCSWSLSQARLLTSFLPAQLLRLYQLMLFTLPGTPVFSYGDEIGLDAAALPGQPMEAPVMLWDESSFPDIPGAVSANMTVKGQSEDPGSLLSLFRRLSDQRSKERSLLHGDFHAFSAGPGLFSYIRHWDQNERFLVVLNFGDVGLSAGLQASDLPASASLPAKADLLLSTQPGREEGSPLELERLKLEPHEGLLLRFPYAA
Test: cell-based
Details: SK-MEL-2; sesamol 0.1 mM, 10 min; competitor at the concentration printed in the row
Please go through the items and note down their Sesamol Distribution Volume in presence of the compound.
Answers are plain numbers, in µL/mg Protein.

CC(C)C[C@H](N)C(=O)O [L-leucine, L-Leucine] : 11.7
C[C@H](N)C(=O)O [L-Alanine, L-alanine] : 13.1
N[C@@H](Cc1ccc(O)cc1)C(=O)O [L-tyrosine] : 5.8
N[C@@H](Cc1ccc(N(CCCl)CCCl)cc1)C(=O)O [Melphalan, melphalan] : 9.4
NC1(C(=O)O)CC2CCC1C2 (stereo not drawn) [BCH, 2-Amino-2-norbornanecarboxylic acid] : 10.3

We now examine a further compound.
What value of measured Sesamol Distribution Volume in presence of the compound is listed for N[C@@H](Cc1ccc(O)c(O)c1)C(=O)O [L-Dopa, L-dopa] ? 7.4
